# System: COLO 205 colon
# assay.overview: NCI-60 one-dose screen, 48 h
# experimental.conditions: 10 µM unless noted
This is part of a sample that, as a whole, favours compounds with a hit. Of some 83,000 tested, about 20% had one in any assay. The source made the active and inactive calls. The calls were made as follows: active = growth percent below 10; inactive = the rest.
Give one outcome, nothing more. List: active, inactive

## Task Which outcome was entered for the compound "COc1ccc(-c2no[n+]([O-])c2Nc2ccccc2Br)cc1" in this test?
## Result inactive

## Task Which outcome was entered for the compound "NC(=O)c1c(NC(=O)c2cccc(C(F)(F)F)c2F)sc2c1CCC(=O)C2" in this test?
## Result active

## Task Which outcome was entered for the compound "COc1ccc(-c2ccc3c4c(cccc24)C(=O)N(N2C(=O)c4cccc5cccc(c45)C2=O)C3=O)cc1" in this test?
## Result inactive

## Task Which outcome was entered for the compound "COc1cc2oc(-c3cccc(NC(=O)c4cc(NC(=O)[C@H](C)N)ccc4Cl)c3)cc(=O)c2c(OC)c1OC" in this test?
## Result inactive

## Task Which outcome was entered for the compound CC(C)(C)CC(C)(C)n1nnnc1C(Nc1ccccc1)c1cc2cccc3ccc4cccc1c4c32 (centres undefined) in this test?
## Result inactive

## Task Which outcome was entered for the compound "O=C(CCCCCCN1CC(=O)N2[C@@H](c3cccc(Cl)c3)c3[nH]c4ccccc4c3C[C@H]2C1=O)NO" in this test?
## Result inactive

## Task Which outcome was entered for the compound "Cc1cc(O)c(=O)cc2c1C[C@H]1CC(C)(C)/C=C/C[C@]3(C)Oc4cc(=O)c(O)cc(C)c4C[C@H]3C[C@H](O)[C@@]1(C)O2" in this test?
## Result active

## Task Which outcome was entered for the compound "COc1ccc(NC(=O)[C@H](C)N)cc1C(=O)Nc1cccc(-c2cc(=O)c3c(OC)c(OC)c(OC)cc3o2)c1" in this test?
## Result inactive

## Task Which outcome was entered for the compound "COc1ccc2c(C3=C(c4c[nH]c5ccccc45)C(=O)N(O)C3=O)coc2c1" in this test?
## Result inactive

---

What growth was measured for each of the following?
# Test system: MALME-3M melanoma
# assay.overview: NCI-60 one-dose screen, 48 h (100 = growth as untreated, 0 = no growth, -100 = all killed)
# experimental.conditions: 10 µM unless noted
This is part of a sample that, as a whole, favours compounds with a hit. Of some 83,000 tested, about 20% had one in any assay. Calls of active or inactive are those of the source. The calls were made as follows: active = growth percent below 10; inactive = the rest.

## Task Endpoint output: growth of "O=C(Nc1cc(Cl)cc(Cl)c1)Nc1ccc2oc(=O)ccc2c1" . Value?
## Result 0.228% (active)

## Task Endpoint output: growth of "Cc1ccccc1/C=C/c1nn2c(-c3ccoc3C)nnc2s1" . Value?
## Result 106% (inactive)

## Task Endpoint output: growth of "COCCOc1ccc(-c2csc(NC(=O)CN3CCN(CCO)CC3)n2)cc1NS(=O)(=O)c1cccc2c(N(C)C)cccc12" . Value?
## Result 40.1% (inactive)

## Task Endpoint output: growth of "CCNC(=O)Oc1ccc(/C(=C(/C)c2ccc(Cl)cc2)c2ccc(OCCN3CCCC3)cc2)cc1" . Value?
## Result 63.6% (inactive)

## Task Endpoint output: growth of "CCOC(=O)c1nn(-c2ccccc2)c(=O)c2c(N)c(C#N)c(-c3cccs3)cc12" . Value?
## Result 88.4% (inactive)

## Task Endpoint output: growth of "CC[C@@](C)(NC(=O)C(C)(C)NC(=O)[C@@H](NC(=O)[C@@H]1CCCN1C(=O)C(C)(C)NC(=O)[C@H](CC(C)C)NC(=O)CNC(=O)C(C)(C)NC(=O)[C@@H](NC(=O)C(C)(C)NC(=O)[C@H](CCC(N)=O)NC(=O)[C@H](C)NC(=O)C(C)(C)NC(=O)[C@H](C)NC(=O)C(C)(C)NC(=O)[C@@H]1CCCN1C(=O)C(C)(C)NC(C)=O)C(C)C)C(C)C)C(=O)N[C@@H](CCC(N)=O)C(=O)N[C@@H](CCC(N)=O)C(=O)N[C@H](CO)Cc1ccccc1" . Value?
## Result -21.3% [4.25 µM] (active)

---

# System: MDA-MB-435 melanoma
# assay.overview: NCI-60 one-dose screen, 48 h (100 = growth as untreated, 0 = no growth, -100 = all killed)
# experimental.conditions: 10 µM unless noted
The panel holds about 83,000 compounds, 20% with a hit somewhere; the sample as a whole holds those more often.
Classification field: True = growth at or over 30%; False = growth under 30%.

## Task # bool: growth of "COc1ccc(-c2nc3cc(Cl)c(Cl)cc3n2CC(=O)N=Nc2c(O)[nH]c3ccc(Br)cc23)cc1" >= 30%
## Result False

## Task # bool: growth of "C=CCn1c(SCC(=O)Nc2cccc(C(=O)/C=C/c3ccccc3Cl)c2)nc2ccccc2c1=O" >= 30%
## Result True

## Task # bool: growth of "Oc1ccc(-c2nnc(SCc3ccc(O)c4ncccc34)n2-c2ccccc2)cc1" >= 30%
## Result False

## Task # bool: growth of "C=CCn1c(SCC(=O)c2ccc(OC)cc2)nnc1-c1ccc(OC)cc1" >= 30%
## Result True

## Task # bool: growth of CCOC(=O)CC(=O)CSC1=NC2C(NN1)N(C)C(=O)N2C (centres undefined) >= 30%
## Result True

## Task # bool: growth of "COCCOc1ccc(-c2csc(NC(=O)CN3CCN(CCO)CC3)n2)cc1NS(=O)(=O)c1cccc2c(N(C)C)cccc12" >= 30%
## Result True

## Task # bool: growth of "C=CCn1c(SCC(=O)Nc2cccc(C(=O)/C=C/c3ccc(OC)c(OC)c3)c2)nc2ccccc2c1=O" >= 30%
## Result True

## Task # bool: growth of "COc1ccc(-c2nnc(SCc3ccc(O)c4ncccc34)n2-c2ccccc2)cc1" >= 30%
## Result False

## Task # bool: growth of "COc1ccc(/C=N/Nc2nc(Nc3ccccc3)nc(Nc3ccc(S(N)(=O)=O)cc3)n2)cc1" >= 30%
## Result True

## Task # bool: growth of "CCNC(=O)Oc1ccc(/C(=C(/C)c2ccc(Cl)cc2)c2ccc(OCCN3CCCC3)cc2)cc1" >= 30%
## Result True

## Task # bool: growth of "O=C(/C=C/c1cccc(O)c1)c1ccc(O)cc1" >= 30%
## Result True

## Task # bool: growth of "O=C(Nc1ccccc1)Nc1nc2ccc([N+](=O)[O-])cc2s1" >= 30%
## Result False

## Task # bool: growth of CCOC(=O)/C=c1\sc2n(c1=O)C1C(NN=2)N(CC)C(=O)N1CC (centres undefined) >= 30%
## Result False

## Task # bool: growth of CCC(C)[C@H]1OC(=O)[C@H](C(C)C)N(C)C(=O)[C@@H](C(C)C)OC(=O)[C@H](C(C)C)N(C)C(=O)[C@@H](C(C)CC)OC(=O)[C@H](C(C)C)N(C)C1=O (some centres undefined) >= 30%
## Result False

## Task # bool: growth of "CCOC(=O)Nc1cccc(-n2cnc3cc(-c4ccc(O)cc4)ccc32)c1" >= 30%
## Result False

## Task # bool: growth of "O=C(CCCCCCN1CC(=O)N2[C@@H](c3ccccc3)c3[nH]c4ccccc4c3C[C@H]2C1=O)NO" >= 30%
## Result True

## Task # bool: growth of "CC(C)(C)OC(=O)N1CCN(S(=O)(=O)/N=C2\NC(=O)NC2=C(Cl)Cl)CC1" >= 30%
## Result True

## Task # bool: growth of CCN1C(=O)N(CC)C2SC(N/N=C/c3cccs3)=NC21 (centres undefined) >= 30%
## Result False

---

# Test system: HT29 colon
# assay.overview: NCI-60 one-dose screen, 48 h (100 = growth as untreated, 0 = no growth, -100 = all killed)
# experimental.conditions: 10 µM unless noted
About 83,000 compounds went through this panel and 20% of them were active in at least one assay; those are over-represented in the sample as a whole.
What growth was measured for each of the following?
Give the value, in units of %, as a plain number.

## Task Endpoint output: growth of "CN1CCN(c2ccc3c(c2)nc(NNC(=O)c2ccncn2)c2cccn23)CC1" . Value?
## Result 32.7

## Task Endpoint output: growth of "C/C(=N\NC(=S)Nc1ccc(Br)cc1)c1cc2ccccc2oc1=O" . Value?
## Result 90.3

## Task Endpoint output: growth of "NS(=O)(=O)c1ccc(-n2cc(CC=O)nn2)cc1" . Value?
## Result 101

## Task Endpoint output: growth of "C(=C(\C1=NCCN1)n1cnc2ccccc21)/c1ccc2ccccc2c1" . Value?
## Result 91.7

## Task Endpoint output: growth of "CS(=O)(=O)c1nccc(-c2c(-c3ccc(F)c(OCc4ccccc4)c3)nc3sccn23)n1" . Value?
## Result 103

## Task Endpoint output: growth of "CCN(CC)CCN1C(=O)c2c(c3c4cc(Br)ccc4[nH]c3c3ccc4ccccc4c23)C1=O" . Value?
## Result -69.9

## Task Endpoint output: growth of "COc1cc(C(=O)C[n+]2ccc3ccccc3c2)cc(OC)c1OC" . Value?
## Result 95.2

## Task Endpoint output: growth of COc1cc(C2=NN(C(C)=O)C(c3ccc(N4CCOCC4)cc3)C2)cc(OC)c1OC (stereo not given) . Value?
## Result 109

## Task Endpoint output: growth of "O=C(Nc1cc(F)cc2cccnc12)c1cnc(N2CCOCC2)cn1" . Value?
## Result 30.1

## Task Endpoint output: growth of "COc1ccccc1/C=C/C(=O)c1nnn(-c2ccc(C(=O)O)cc2)c1C" . Value?
## Result 106
